Values compiled from patent US20260242478A1.

# system-name: T1, PSMA Fab (006 PSMA Fab)
# T1 construct: also called Anti-PSMA Fab; anti-PSMA Fab
# protocol-summary: clonal phage ELISA; biotinylated PSMA Fab on neutravidin plate pre-incubated with competitor PSMA antigen; anti-M13-HRP detection
experimental-endpoint: Phage binding ELISA signal, Anti-PSMA Fab in presence of PSMA antigen

                        binder  test_value
0  WDHWCTPAWMCFNA [Phage-2323]       0.119
1  MEQWCIPQWMCSGF [Phage-2317]      0.0911
2  HSHWCIPPWMCTFV [Phage-2324]       0.162
3  GPTLCIPAWMCSGM [Phage-2326]      0.0802
4  LEKWCIPTWMCEMT [Phage-2322]      0.0679
5  VSNWCIPRGLCTQM [Phage-2320]      0.0665
6  SVHWCTPPWMCQGF [Phage-2327]      0.0771
7  LEKWCTPVWMCEGV [Phage-2318]      0.0702
